Data origin, for the record: paper PMC11025159

assay: Body weight, biochemical and haematological parameters in DHT-induced AGA mice (0.5% testosterone then topical treatment); format: in vivo, C57BL/6J mice; conditions: Day 21; 0.8 mg/Kg; unit assumed
Structures can show the parent of a compound that is named as a salt.
readout.kind: LYMPH (%)
Reply with just the number (in %).

Please indicate LYMPH recorded for C[C@@H]1CCN(C(=O)CC#N)C[C@@H]1N(C)c1ncnc2[nH]ccc12 [Tofacitinib, tofacitinib citrate, reference compound] 77.9

###

target: JAK2 (Homo sapiens, UniProt O60674); construct: purchased BPS Bioscience 79,520; assay: Cell-free kinase assay JAK2; format: biochemical; conditions: 1mM ATP; read-out: IC50 JAK 2
Sequence (O60674 whole entry): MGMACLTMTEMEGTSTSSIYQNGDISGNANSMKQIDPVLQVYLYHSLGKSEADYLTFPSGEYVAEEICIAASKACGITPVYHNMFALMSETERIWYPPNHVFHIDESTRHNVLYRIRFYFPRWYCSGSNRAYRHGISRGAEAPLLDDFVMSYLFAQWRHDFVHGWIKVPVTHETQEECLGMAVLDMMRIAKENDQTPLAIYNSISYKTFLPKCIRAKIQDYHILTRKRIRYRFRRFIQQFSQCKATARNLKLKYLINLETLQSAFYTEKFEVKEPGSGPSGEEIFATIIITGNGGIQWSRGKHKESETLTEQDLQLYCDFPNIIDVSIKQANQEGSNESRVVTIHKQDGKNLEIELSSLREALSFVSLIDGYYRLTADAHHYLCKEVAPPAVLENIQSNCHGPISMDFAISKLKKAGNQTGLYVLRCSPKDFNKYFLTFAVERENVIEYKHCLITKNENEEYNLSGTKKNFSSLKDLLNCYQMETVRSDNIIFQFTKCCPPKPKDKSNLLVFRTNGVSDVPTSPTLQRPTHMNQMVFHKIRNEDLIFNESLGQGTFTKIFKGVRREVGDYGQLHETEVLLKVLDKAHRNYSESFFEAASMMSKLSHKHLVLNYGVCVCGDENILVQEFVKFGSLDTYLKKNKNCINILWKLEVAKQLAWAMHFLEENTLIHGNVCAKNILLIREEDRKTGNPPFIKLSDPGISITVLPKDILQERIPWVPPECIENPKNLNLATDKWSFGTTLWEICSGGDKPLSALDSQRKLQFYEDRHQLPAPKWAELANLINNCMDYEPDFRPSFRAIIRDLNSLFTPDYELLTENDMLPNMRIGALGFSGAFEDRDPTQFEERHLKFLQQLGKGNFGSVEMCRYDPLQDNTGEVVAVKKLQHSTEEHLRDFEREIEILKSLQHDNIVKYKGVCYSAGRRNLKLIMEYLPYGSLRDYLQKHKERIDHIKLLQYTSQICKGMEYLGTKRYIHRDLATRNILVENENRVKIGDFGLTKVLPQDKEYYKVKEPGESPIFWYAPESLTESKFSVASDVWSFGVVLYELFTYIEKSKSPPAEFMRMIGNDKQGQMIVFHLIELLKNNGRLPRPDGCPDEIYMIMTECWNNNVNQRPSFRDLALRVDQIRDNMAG
pIC50: −log10 of the molar value.
readout.kind: pIC50

Please tell me the measured pIC50 for Fc1ccc(-c2cnc3[nH]cc(-c4ccnc(NC5CC5)n4)c3c2)cc1 [MJ04] ; system: JAK2 (Homo sapiens, UniProt O60674). < 5.00
